target: ALPK1 (Homo sapiens (Human), UniProt Q96QP1); test: ALPK1 in vitro kinase assay (HTRF, TIFA phosphorylation); conditions: ADP-Heptose activated ALPK1
Sequence (Q96QP1 whole entry): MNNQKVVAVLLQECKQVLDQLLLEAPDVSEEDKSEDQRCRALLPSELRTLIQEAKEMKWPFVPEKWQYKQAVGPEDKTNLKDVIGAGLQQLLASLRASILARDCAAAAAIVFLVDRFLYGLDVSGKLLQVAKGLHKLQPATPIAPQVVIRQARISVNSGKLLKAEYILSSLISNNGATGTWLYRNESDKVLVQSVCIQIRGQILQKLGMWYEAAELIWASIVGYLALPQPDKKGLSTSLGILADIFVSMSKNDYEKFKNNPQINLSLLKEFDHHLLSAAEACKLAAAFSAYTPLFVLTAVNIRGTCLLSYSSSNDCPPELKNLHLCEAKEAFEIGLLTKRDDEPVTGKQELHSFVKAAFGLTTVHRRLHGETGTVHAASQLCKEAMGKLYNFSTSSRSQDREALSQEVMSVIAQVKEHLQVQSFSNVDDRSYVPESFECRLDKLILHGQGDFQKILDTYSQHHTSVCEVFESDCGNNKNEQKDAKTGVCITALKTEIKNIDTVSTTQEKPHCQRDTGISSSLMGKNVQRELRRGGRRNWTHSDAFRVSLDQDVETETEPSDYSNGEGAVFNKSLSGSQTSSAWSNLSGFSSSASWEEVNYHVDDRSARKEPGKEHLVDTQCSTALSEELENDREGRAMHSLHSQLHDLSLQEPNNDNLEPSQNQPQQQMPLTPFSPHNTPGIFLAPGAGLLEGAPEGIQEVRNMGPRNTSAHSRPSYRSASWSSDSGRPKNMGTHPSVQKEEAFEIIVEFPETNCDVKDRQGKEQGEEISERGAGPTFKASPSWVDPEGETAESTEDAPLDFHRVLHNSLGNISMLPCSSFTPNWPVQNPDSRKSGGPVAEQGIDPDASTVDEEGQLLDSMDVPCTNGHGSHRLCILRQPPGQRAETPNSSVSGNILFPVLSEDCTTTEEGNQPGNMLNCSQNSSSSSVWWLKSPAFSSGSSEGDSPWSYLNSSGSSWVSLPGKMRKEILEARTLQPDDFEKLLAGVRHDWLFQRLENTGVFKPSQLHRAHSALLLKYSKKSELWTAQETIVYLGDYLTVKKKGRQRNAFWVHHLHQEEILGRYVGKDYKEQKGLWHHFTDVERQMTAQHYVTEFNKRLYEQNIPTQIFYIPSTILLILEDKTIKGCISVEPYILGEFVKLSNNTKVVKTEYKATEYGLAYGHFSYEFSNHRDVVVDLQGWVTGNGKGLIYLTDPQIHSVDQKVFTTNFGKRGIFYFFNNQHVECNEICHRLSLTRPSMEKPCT
pIC50: −log10 of the molar value.
Label TRUE when pIC50 >= 7; otherwise FALSE.

[[record]]
compound = "CC#Cc1cccc2sc(NC(=O)c3c(F)cc(N4CCNCC4)cc3F)nc12"
target_system = "ALPK1 (Homo sapiens (Human), UniProt Q96QP1)"
assigned_label = "TRUE"

[[record]]
compound = "CN1CCN(c2cc(F)c(C(=O)Nc3nc4c(Br)cccc4s3)c(F)c2)CC1"
target_system = "ALPK1 (Homo sapiens (Human), UniProt Q96QP1)"
assigned_label = "TRUE"

[[record]]
compound = "O=C(Nc1nc2c(Br)cccc2s1)c1c(F)cc(N2CCNC(CO)C2)cc1F (centres unmarked)"
target_system = "ALPK1 (Homo sapiens (Human), UniProt Q96QP1)"
assigned_label = "TRUE"

[[record]]
compound = "C#Cc1cccc2sc(NC(=O)c3c(F)cc(N4CCNC[C@H]4C)cc3F)nc12"
target_system = "ALPK1 (Homo sapiens (Human), UniProt Q96QP1)"
assigned_label = "TRUE"

[[record]]
compound = "COc1cccc2sc(NC(=O)c3c(F)cc(N4CCN(Cc5ccccc5)C(=O)C4)cc3F)nc12"
target_system = "ALPK1 (Homo sapiens (Human), UniProt Q96QP1)"
assigned_label = "FALSE"

[[record]]
compound = "O=C(Nc1nc2c(Br)cccc2s1)c1c(F)cccc1F"
target_system = "ALPK1 (Homo sapiens (Human), UniProt Q96QP1)"
assigned_label = "FALSE"

[[record]]
compound = "COc1cccc2sc(NC(=O)c3c(F)cc(N4CCNC(C)C4)cc3F)nc12 (centres unmarked)"
target_system = "ALPK1 (Homo sapiens (Human), UniProt Q96QP1)"
assigned_label = "FALSE"

[[record]]
compound = "COc1cccc2sc(NC(=O)c3c(F)cc(OCCO)cc3F)nc12"
target_system = "ALPK1 (Homo sapiens (Human), UniProt Q96QP1)"
assigned_label = "FALSE"

[[record]]
compound = "COc1cccc2ccc(NC(=O)c3c(F)cc(N4CCNCC4)cc3F)nc12"
target_system = "ALPK1 (Homo sapiens (Human), UniProt Q96QP1)"
assigned_label = "TRUE"

[[record]]
compound = "COc1cc(F)cc2sc(NC(=O)c3c(F)cc(N4CCNCC4)cc3F)nc12"
target_system = "ALPK1 (Homo sapiens (Human), UniProt Q96QP1)"
assigned_label = "FALSE"

[[record]]
compound = "C#Cc1cccc2sc(NC(=O)c3c(F)cc(N4CCNC[C@@H]4C)cc3F)nc12"
target_system = "ALPK1 (Homo sapiens (Human), UniProt Q96QP1)"
assigned_label = "TRUE"


* * *

target: ALPK1 (Homo sapiens (Human), UniProt Q96QP1); experiment: ALPK1 in vitro kinase assay (HTRF, TIFA phosphorylation); format: biochemical; settings: ADP-Heptose activated ALPK1
The entries below come with measured IC50 values attached.
Endpoint Label: IC50 (nM)

[[record]]
molecule = "C#Cc1cccc2sc(NC(=O)c3c(F)cc(N4CCNCC4C)cc3F)nc12 (stereo not shown) [Compound T059]"
target_system = "ALPK1 (Homo sapiens (Human), UniProt Q96QP1)"
endpoint_label = "IC50"
reading_unit = "nM"
measured_value = 43

[[record]]
molecule = "COc1cc(Cl)cc2sc(NC(=O)c3c(F)cc(N4CCNCC4)cc3F)nc12 [Compound T043]"
target_system = "ALPK1 (Homo sapiens (Human), UniProt Q96QP1)"
endpoint_label = "IC50"
reading_unit = "nM"
measured_value = 401

[[record]]
molecule = "C#Cc1cccc2sc(NC(=O)c3c(F)cc(N4CCNCC4C(C)C)cc3F)nc12 (stereo not shown) [Compound T051]"
target_system = "ALPK1 (Homo sapiens (Human), UniProt Q96QP1)"
endpoint_label = "IC50"
reading_unit = "nM"
measured_value = 56

[[record]]
molecule = "COc1cc(F)cc2ccc(NC(=O)c3c(F)cc(N4CCNCC4)cc3F)nc12 [Compound Q007]"
target_system = "ALPK1 (Homo sapiens (Human), UniProt Q96QP1)"
endpoint_label = "IC50"
reading_unit = "nM"
measured_value = 176


* * *

target: T237M hALPK1 mutant (Homo sapiens (Human), UniProt Q96QP1, T237M); experiment: Inhibition of IL-8 secretion in HEK293 cells (A2) stably expressing T237M hALPK1 mutant; conditions: 40 hours with compound, IL-8 ELISA, relative to wild-type HEK293 cells, read-out: Half maximal inhibitory concentration (IC50) of IL-8 secretion in cells expressing T237M mutant
Sequence (Q96QP1 whole entry T237M): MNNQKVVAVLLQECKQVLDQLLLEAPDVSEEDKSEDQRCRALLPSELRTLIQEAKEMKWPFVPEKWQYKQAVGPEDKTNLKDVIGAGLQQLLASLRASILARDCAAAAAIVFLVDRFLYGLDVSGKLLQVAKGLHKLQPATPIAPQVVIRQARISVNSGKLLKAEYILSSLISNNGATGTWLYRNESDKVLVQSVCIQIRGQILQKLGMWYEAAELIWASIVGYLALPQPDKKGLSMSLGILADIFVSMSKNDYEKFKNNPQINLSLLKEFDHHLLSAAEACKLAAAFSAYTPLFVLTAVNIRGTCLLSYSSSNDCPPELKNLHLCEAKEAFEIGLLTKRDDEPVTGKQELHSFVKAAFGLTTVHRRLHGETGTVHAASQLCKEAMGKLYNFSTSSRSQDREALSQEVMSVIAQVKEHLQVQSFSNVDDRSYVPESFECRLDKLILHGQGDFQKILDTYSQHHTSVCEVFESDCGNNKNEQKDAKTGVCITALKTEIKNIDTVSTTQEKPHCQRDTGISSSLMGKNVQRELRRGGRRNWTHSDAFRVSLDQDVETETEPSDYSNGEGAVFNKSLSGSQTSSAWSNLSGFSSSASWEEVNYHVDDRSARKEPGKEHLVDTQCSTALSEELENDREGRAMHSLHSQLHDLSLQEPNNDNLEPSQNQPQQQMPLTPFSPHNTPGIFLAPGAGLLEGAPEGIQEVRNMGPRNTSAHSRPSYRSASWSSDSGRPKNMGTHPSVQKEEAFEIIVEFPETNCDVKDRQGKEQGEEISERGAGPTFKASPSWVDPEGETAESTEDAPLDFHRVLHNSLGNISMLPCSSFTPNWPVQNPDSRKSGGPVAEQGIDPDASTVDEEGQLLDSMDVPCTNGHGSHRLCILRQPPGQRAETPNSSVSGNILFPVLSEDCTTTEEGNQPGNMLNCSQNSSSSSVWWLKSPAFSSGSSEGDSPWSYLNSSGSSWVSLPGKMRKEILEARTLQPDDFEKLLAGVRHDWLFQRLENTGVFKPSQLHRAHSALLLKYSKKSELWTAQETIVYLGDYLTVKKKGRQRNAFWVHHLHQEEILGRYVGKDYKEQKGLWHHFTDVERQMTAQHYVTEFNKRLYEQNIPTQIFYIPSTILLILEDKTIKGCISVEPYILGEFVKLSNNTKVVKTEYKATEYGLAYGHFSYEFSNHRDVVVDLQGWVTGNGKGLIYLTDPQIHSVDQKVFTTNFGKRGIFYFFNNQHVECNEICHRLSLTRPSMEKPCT
pIC50: −log10 of the molar value.
Label Fulfilled when pIC50 >= 6; otherwise Not fulfilled.

[[record]]
compound = "C#Cc1cc(F)cc2sc(NC(=O)c3c(F)ccc(N4CCNCC4)c3F)nc12 [Compound T064]"
target_system = "T237M hALPK1 mutant (Homo sapiens (Human), UniProt Q96QP1, T237M)"
assigned_label = "Not fulfilled"

[[record]]
compound = "C#Cc1cccc2sc(NC(=O)c3c(F)cc(N4CCNCC4)cc3F)nc12 [Compound T007]"
target_system = "T237M hALPK1 mutant (Homo sapiens (Human), UniProt Q96QP1, T237M)"
assigned_label = "Fulfilled"

[[record]]
compound = "C#Cc1cccc2sc(NC(=O)c3c(F)ccc(N4CCNCC4)c3F)nc12 [Compound T060]"
target_system = "T237M hALPK1 mutant (Homo sapiens (Human), UniProt Q96QP1, T237M)"
assigned_label = "Not fulfilled"

[[record]]
compound = "C#Cc1cccc2sc(NC(=O)c3c(F)cc(N4CCN(C)CC4)cc3F)nc12 [Compound T047]"
target_system = "T237M hALPK1 mutant (Homo sapiens (Human), UniProt Q96QP1, T237M)"
assigned_label = "Fulfilled"

[[record]]
compound = "C#Cc1cccc2sc(NC(=O)c3c(F)cc(N4CCNC[C@@H]4C)cc3F)nc12 [Compound T054]"
target_system = "T237M hALPK1 mutant (Homo sapiens (Human), UniProt Q96QP1, T237M)"
assigned_label = "Fulfilled"


* * *

target: ALPK1 (Homo sapiens (Human), UniProt Q96QP1); assay: ALPK1 in vitro kinase assay (HTRF, TIFA phosphorylation); settings: ADP-Heptose activated ALPK1
pIC50: −log10 of the molar value. Where a name gives a salt, the structure may show the parent alone.
Endpoint Label: pIC50

[[record]]
molecule = "COc1cccc2sc(NC(=O)c3c(F)cc(C(=O)N4CCNCC4)cc3F)nc12"
endpoint_label = "pIC50"
measured_value = 6.47

[[record]]
molecule = "COc1cccc2sc(NC(=O)c3c(F)cc(N4CC5CC(C4)N5)cc3F)nc12"
endpoint_label = "pIC50"
measured_value = 7.02

[[record]]
molecule = "COc1cccc2sc(NC(=O)c3c(Cl)cc(N4CCNCC4)cc3Cl)nc12"
endpoint_label = "pIC50"
measured_value = 7.24

[[record]]
molecule = "C#Cc1cccc2sc(NC(=O)c3c(F)cc(N4CCN(Cc5ccc(F)cc5)CC4)cc3F)nc12"
endpoint_label = "pIC50"
measured_value = 6.74

[[record]]
molecule = "COc1cccc2ccc(NC(=O)c3c(F)ccc(N4CCNCC4)c3F)nc12"
endpoint_label = "pIC50"
measured_value = 6.59

[[record]]
molecule = "C#Cc1cccc2sc(NC(=O)c3c(F)ccc(N4CCNCC4)c3F)nc12"
endpoint_label = "pIC50"
measured_value = 7.36

[[record]]
molecule = "COc1cccc2sc(NC(=O)c3c(C)cc(N4CCNCC4)cc3F)nc12"
endpoint_label = "pIC50"
measured_value = 6.75

[[record]]
molecule = "COc1cccc2ccc(NC(=O)c3c(F)ccc(CN4CCNCC4)c3F)nc12"
endpoint_label = "pIC50"
measured_value = 7.48

[[record]]
molecule = "O=C(Nc1nc2c(Cl)cccc2s1)c1c(F)cc(N2CCNCC2)cc1F"
endpoint_label = "pIC50"
measured_value = 7.25

[[record]]
molecule = "COC(=O)C1CCN(c2cc(F)c(C(=O)Nc3nc4c(OC)cccc4s3)c(F)c2)CC1"
endpoint_label = "pIC50"
measured_value = 6.38

[[record]]
molecule = "C#Cc1cc(F)cc2sc(NC(=O)c3c(F)ccc(N4CCNCC4)c3F)nc12"
endpoint_label = "pIC50"
measured_value = 7.29

[[record]]
molecule = "COc1cccc2sc(NC(=O)c3c(F)cc(NCCO)cc3F)nc12"
endpoint_label = "pIC50"
measured_value = 6.54

[[record]]
molecule = "O=C(Nc1nc2c(C3CC3)cccc2s1)c1c(F)cccc1F"
endpoint_label = "pIC50"
measured_value = 6.01

[[record]]
molecule = "Cc1cc(Cl)cc2sc(NC(=O)c3c(F)cc(N4CCNCC4)cc3F)nc12"
endpoint_label = "pIC50"
measured_value = 6.59

[[record]]
molecule = "COc1cccc2sc(NC(=O)c3c(F)cc(N4CCC(O)CC4)cc3F)nc12"
endpoint_label = "pIC50"
measured_value = 6.61

[[record]]
molecule = "C#Cc1cccc2sc(NC(=O)c3c(F)cc(N4CCNCC4CC)cc3F)nc12 (stereo not shown)"
endpoint_label = "pIC50"
measured_value = 7.24

[[record]]
molecule = "O=C(Nc1nc2c(Br)cccc2s1)c1c(F)cc(N2CCNCC2)cc1F [Compound T019, hydrochloride]"
endpoint_label = "pIC50"
measured_value = 7.96

[[record]]
molecule = "C#Cc1cccc2sc(NC(=O)c3c(F)cc(N4CCOCC4)cc3F)nc12"
endpoint_label = "pIC50"
measured_value = 6.78

[[record]]
molecule = "COc1cccc2sc(NC(=O)c3c(F)cc(N4CCOCC4)cc3F)nc12"
endpoint_label = "pIC50"
measured_value = 6.53

[[record]]
molecule = "COc1cccc2sc(NC(=O)c3c(F)cc(N4CCNCC4)cc3F)nc12 [Compound T017, hydrochloride]"
endpoint_label = "pIC50"
measured_value = 7.85

[[record]]
molecule = "COc1cccc2sc(NC(=O)c3c(F)cc(N4CCC(O)C4)cc3F)nc12 (stereo not shown)"
endpoint_label = "pIC50"
measured_value = 5.93

[[record]]
molecule = "C#Cc1cccc2sc(NC(=O)c3c(F)cc(N4CC[C@H](N)C4)cc3F)nc12"
endpoint_label = "pIC50"
measured_value = 7.05

[[record]]
molecule = "C#Cc1cccc2sc(NC(=O)c3c(F)cc(-n4ccnc4)cc3F)nc12"
endpoint_label = "pIC50"
measured_value = 6.44

[[record]]
molecule = "C#Cc1cccc2sc(NC(=O)c3c(F)cc(N4CCNCC4)cc3F)nc12"
endpoint_label = "pIC50"
measured_value = 8.40

[[record]]
molecule = "COc1cccc2ncc(NC(=O)c3c(F)cc(N4CCNCC4)cc3F)nc12"
endpoint_label = "pIC50"
measured_value = 6.75

[[record]]
molecule = "COc1cccc2sc(NC(=O)c3c(F)cc(N4CCNCC4)cc3Cl)nc12"
endpoint_label = "pIC50"
measured_value = 7.31

[[record]]
molecule = "COc1cccc2sc(NC(=O)c3c(F)cc(-c4cccc(C(=O)O)c4)cc3F)nc12"
endpoint_label = "pIC50"
measured_value = 6.80

[[record]]
molecule = "C#Cc1cccc2sc(NC(=O)c3c(C)cc(N4CCNCC4)cc3F)nc12"
endpoint_label = "pIC50"
measured_value = 7.01

[[record]]
molecule = "CCCN1CCN(c2cc(F)c(C(=O)Nc3nc4c(OC)cccc4s3)c(F)c2)CC1"
endpoint_label = "pIC50"
measured_value = 7.09

[[record]]
molecule = "O=C(Nc1nc2c(Br)cccc2s1)c1c(F)cc(CCN2CCNCC2)cc1F"
endpoint_label = "pIC50"
measured_value = 6.83

[[record]]
molecule = "O=C(Nc1nc2c(Br)cccc2s1)c1c(F)cc(CN2CCNCC2)cc1F"
endpoint_label = "pIC50"
measured_value = 7.00

[[record]]
molecule = "C#Cc1cccc2sc(NC(=O)c3c(F)cc(N4CCN(C)CC4)cc3F)nc12"
endpoint_label = "pIC50"
measured_value = 7.89

[[record]]
molecule = "COc1cccc2ccc(NC(=O)c3c(F)cc(N4CCC(O)CC4)cc3F)nc12"
endpoint_label = "pIC50"
measured_value = 6.43

[[record]]
molecule = "O=C(Nc1nc2c(Br)cccc2s1)c1c(F)ccc(N2CCNCC2)c1F"
endpoint_label = "pIC50"
measured_value = 7.33

